system: Pseudoperonospora cubensis (the causal agent of cucumber downy mildew); test: Test B: cucumber downy mildew, preventive spray on cucumber seedlings; type: in vivo; settings: Pseudoperonospora cubensis, component (b) alone, 200 ppm; read-out: CDM Obsd
Catalogue of pest or weed control at 200 ppm values
Respond numerically; units are % and should not be typed.

input: Which value of pest or weed control at 200 ppm has been reported for CC(C)CC(C)c1sccc1NC(=O)c1cn(C)nc1C(F)(F)F (stereo not drawn) in the records?
output: 16

input: Which value of pest or weed control at 200 ppm has been reported for "CO/N=C(/C(=O)OC)c1ccccc1COc1ccccc1C" in the records?
output: 100

input: Which value of pest or weed control at 200 ppm has been reported for "Fc1ccc(Oc2ccnc3cc(Cl)cc(Cl)c23)cc1" in the records?
output: 0

input: Which value of pest or weed control at 200 ppm has been reported for "CON=C(C(=O)OC)c1ccccc1CON=C(C)c1cccc(C(F)(F)F)c1" in the records?
output: 100

input: Which value of pest or weed control at 200 ppm has been reported for "O=C(Nc1ccccc1-c1ccc(Cl)cc1)c1cccnc1Cl" in the records?
output: 0

input: Which value of pest or weed control at 200 ppm has been reported for C[C@@]1(c2ccc(Oc3ccccc3)cc2)OC(=O)N(Nc2ccccc2)C1=O (racemic) in the records?
output: 100

* * *

test system: Pseudoperonospora cubensis (the causal agent of cucumber downy mildew); test: Test B: cucumber downy mildew, preventive spray on cucumber seedlings; type: in vivo; settings: component (b) alone 10 ppm (Compound 1 0 ppm)
Values of CDM Obsd greater than or equal to 70% map to criterion met; values below map to criterion not met.

input: Tell me whether CDM Obsd is at least 70% here: Cc1ccc(C(C)NC(=O)[C@@H](NC(=O)OC(C)C)C(C)C)cc1 (some centres unmarked)
output: criterion met

input: Tell me whether CDM Obsd is at least 70% here: O=C(NCc1ncc(C(F)(F)F)cc1Cl)c1c(Cl)cccc1Cl [fluopicolide]
output: criterion met

input: Tell me whether CDM Obsd is at least 70% here: [Cu+2].[OH-].[OH-] [copper hydroxide]
output: criterion not met

input: Tell me whether CDM Obsd is at least 70% here: CCNc1nc(CC)c(C(=O)NC(C#N)c2cccs2)s1 (centres unmarked)
output: criterion met

input: Tell me whether CDM Obsd is at least 70% here: COC(=O)CC(NC(=O)[C@@H](NC(=O)OC(C)C)C(C)C)c1ccc(Cl)cc1 (some centres unmarked)
output: criterion not met

input: Tell me whether CDM Obsd is at least 70% here: "CCO[PH](=O)O"
output: criterion not met

input: Tell me whether CDM Obsd is at least 70% here: "CO/C=C(/C(=O)OC)c1ccccc1Oc1cc(Oc2ccccc2C#N)ncn1"
output: criterion met

* * *

test system: Phytophthora infestans (the causal agent of tomato late blight); test: whole plant or invertebrate; type: in vivo; settings: Phytophthora infestans, read-out: TLB Obsd, component (b) alone, 200 ppm
Observed Property: pest or weed control at 200 ppm (%)
Respond numerically; units are % and should not be typed.

Here is how some molecules turned out for pest or weed control at 200 ppm.
Molecule	pest or weed control at 200 ppm (%)
C[C@@]1(c2ccc(Oc3ccccc3)cc2)OC(=O)N(Nc2ccccc2)C1=O (racemic)	100
O=C(Nc1ccccc1-c1ccc(Cl)cc1)c1cccnc1Cl	32
CC(C)CC(C)c1sccc1NC(=O)c1cn(C)nc1C(F)(F)F (stereo not drawn)	7
CON=C(C(=O)OC)c1ccccc1CON=C(C)c1cccc(C(F)(F)F)c1	25
Fc1ccc(Oc2ccnc3cc(Cl)cc(Cl)c23)cc1	0

Turning to the following molecule.
input: Which value of pest or weed control at 200 ppm has been reported for "CO/N=C(/C(=O)OC)c1ccccc1COc1ccccc1C" in the records?
output: 100

Cited source for all entries: patent US8449898B2
